Values compiled from patent US20260027208A1.

The reader will find reported EC50 of peptide values listed item by item below.
- STUDY_SYSTEM: T1, KRAS G12D peptide on HLA-A*11:01 (human)
- T1 peptide: VVVGADGVGK
- ASSAY_PROCEDURE: CD137 by flow cytometry; transduced primary CD4+ and CD8+ T cells, TRAC/TRBC wild type; G12D peptide titrated (FIG. 3D); full-length, on cells

BINDER	EC50 of peptide [nM]
TCR5 (TCR, V domains shown) Valpha: GEDVEQSLFLSVREGDSSVINCTYTDSSSTYLYWYKQEPGAGLQLLTYIFSNMDMKQDQRLTVLLNKKDKHLSLRIADTQTGDSAIYFCAERDAGNNRKLIWGLGTSLAVNP Vbeta: GAGVSQSPRYKVAKRGQDVALRCDPISGHVSLFWYQQALGQGPEFLTYFQNEAQLDKSGLPSDRFFAERPEGSVSTLKIQRTQQEDSAVYLCASSLEGGDTQYFGPGTRLTVL	37.8
TCR2 (TCR, V domains shown) Valpha: AQTVTQSQPEMSVQEAETVTLSCTYDTSENNYYLFWYKQPPSRQMILVIRQEAYKQQNATENRFSVNFQKAAKSFSLKISDSQLGDTAMYFCAFMYPSQGGSEKLVFGKGMKLTVNP Vbeta: ETGVTQSPTHLIKTRGQQVTLRCSSQSGHNTVSWYQQALGQGPQFIFQYYREEENGRGNFPPRFSGLQFPNYSSELNVNALELDDSALYLCASSSPGFRSYGYTFGSGTRLTVV	22.2
TCR4 (TCR, V domains shown) Valpha: QKEVEQDPGPLSVPEGAIVSLNCTYSNSAFQYFMWYRQYSRKGPELLMYTYSSGNKEDGRFTAQVDKSSKYISLFIRDSQPSDSATYLCAMGALNSGAGSYQLTFGKGTKLSVIP Vbeta: KAGVTQTPRYLIKTRGQQVTLSCSPISGHRSVSWYQQTPGQGLQFLFEYFSETQRNKGNFPGRFSGRQFSNSRSEMNVSTLELGDSALYLCASSLSSGTGTEAFFGQGTRLTVE	31.1
TCR1 (TCR, V domains shown) Valpha: GDSVTQMEGPVTLSEEAFLTINCTYTATGYPSLFWYVQYPGEGLQLLLKATKADDKGSNKGFEATYRKETTSFHLEKGSVQVSDSAVYFCALSDRVGGARLMFGDGTQLVVKP Vbeta: EADIYQTPRYLVIGTGKKITLECSQTMGHDKMYWYQQDPGMELHLIHYSYGVNSTEKGDLSSESTVSRIRTEHFPLTLESARPSHTSQYLCASSEGLYNEQFFGPGTRLTVL	51.1
TCR91 (TCR, V domains shown) Valpha: AQKVTQAQTEISVVEKEDVTLDCVYETRDTTYYLFWYKQPPSGELVFLIRRNSFDEQNEISGRYSWNFQKSTSSFNFTITASQVVDSAVYFCALNEGGGSTLGRLYFGRGTQLTVWP Vbeta: DAMVIQNPRYQVTQFGKPVTLSCSQTLNHNVMYWYQQKSSQAPKLLFHYYDKDFNNEADTPDNFQSRRPNTSFCFLDIRSPGLGDAAMYLCATSTGRVYQPQHFGDGTRLSIL	179
TCR6 (TCR, V domains shown) Valpha: GQQLNQSPQSMFIQEGEDVSMNCTSSSIFNTWLWYKQDPGEGPVLLIALYKAGELTSNGRLTAQFGITRKDSFLNISASIPSDVGIYFCAGRREGAQKLVFGQGTRLTINP Vbeta: GAGVSQSPRYKVAKRGQDVALRCDPISGHVSLFWYQQALGQGPEFLTYFQNEAQLDKSGLPSDRFFAERPEGSVSTLKIQRTQQEDSAVYLCASSSTLMGVNIQYFGAGTRLSVL	12.2
